Where do the numbers come from? From patent US9611278B2.

system.tested: sGC α1/β1 heterodimer stably expressed in CHO-K1 cells (CHO-K1/sGC) (Homo sapiens, UniProt Q02108+Q02153)
Construct: expressed in transfected cells
Sequence (Q02108 whole entry): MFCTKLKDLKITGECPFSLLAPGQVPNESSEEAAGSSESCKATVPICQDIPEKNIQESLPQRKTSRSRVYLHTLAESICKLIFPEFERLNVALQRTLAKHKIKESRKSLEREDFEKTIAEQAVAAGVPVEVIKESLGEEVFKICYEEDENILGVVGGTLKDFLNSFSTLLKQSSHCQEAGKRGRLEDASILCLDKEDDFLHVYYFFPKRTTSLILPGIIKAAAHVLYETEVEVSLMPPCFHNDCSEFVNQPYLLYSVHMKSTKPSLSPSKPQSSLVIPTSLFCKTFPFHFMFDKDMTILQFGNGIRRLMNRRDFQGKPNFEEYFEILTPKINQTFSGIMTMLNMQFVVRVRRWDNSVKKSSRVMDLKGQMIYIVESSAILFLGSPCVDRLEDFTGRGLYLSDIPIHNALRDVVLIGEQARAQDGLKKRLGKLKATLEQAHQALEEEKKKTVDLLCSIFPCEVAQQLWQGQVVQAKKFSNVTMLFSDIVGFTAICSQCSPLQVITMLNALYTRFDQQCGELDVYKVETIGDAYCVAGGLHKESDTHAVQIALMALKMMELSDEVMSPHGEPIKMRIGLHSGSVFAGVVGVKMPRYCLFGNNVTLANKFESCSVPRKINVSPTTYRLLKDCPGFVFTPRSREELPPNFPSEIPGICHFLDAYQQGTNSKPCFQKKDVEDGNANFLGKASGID
Sequence (Q02153 whole entry): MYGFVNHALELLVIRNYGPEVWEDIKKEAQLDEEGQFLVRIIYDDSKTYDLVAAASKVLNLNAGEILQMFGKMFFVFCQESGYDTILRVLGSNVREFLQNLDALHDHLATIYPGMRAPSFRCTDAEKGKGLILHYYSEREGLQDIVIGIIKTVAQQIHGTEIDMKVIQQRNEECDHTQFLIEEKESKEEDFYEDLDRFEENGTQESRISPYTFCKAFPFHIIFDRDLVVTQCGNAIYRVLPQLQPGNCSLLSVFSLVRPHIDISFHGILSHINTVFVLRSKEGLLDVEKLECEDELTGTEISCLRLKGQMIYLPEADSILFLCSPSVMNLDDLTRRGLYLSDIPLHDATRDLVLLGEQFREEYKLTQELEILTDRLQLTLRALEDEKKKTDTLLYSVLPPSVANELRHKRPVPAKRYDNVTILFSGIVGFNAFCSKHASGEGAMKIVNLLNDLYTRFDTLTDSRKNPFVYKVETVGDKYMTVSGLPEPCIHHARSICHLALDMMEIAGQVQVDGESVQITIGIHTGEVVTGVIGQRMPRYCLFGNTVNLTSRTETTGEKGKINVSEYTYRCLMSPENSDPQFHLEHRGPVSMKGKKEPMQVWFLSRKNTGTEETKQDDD
test.protocol: Cell-based sGC Functional Assay (CASA Assay)
recorded.conditions: CHO-K1, activation as percentage of maximum cGMP production of Compound A (set to 100%); read-out: % Act.
Give measured Emax for each item. Keep answers brief.
Answers are plain numbers, in %.

Completed entries (count: 5):
molecule | measured.quantity | unit.tag | test.result
[2H]C([2H])([2H])n1ncc2c(-c3nc(N)c4c(n3)NC(=O)C4(C)c3cn(C(C)C)nn3)nc(CCC(F)(F)C(F)(F)F)nc21 (single isomer, unassigned) | Emax | % | 125
Cn1ncc2c(-c3nc(N)c4c(n3)NC(=O)C4(c3cnoc3)C3CC3)nc(CCC(F)(F)C(F)(F)F)nc21 (stereo not drawn) | Emax | % | 107
Cn1ccc2c(-c3nc(N)c4c(n3)NC(=O)C4(C)c3nnc(C4CC4)o3)nc(CCC(F)(F)C(F)(F)F)nc21 (stereo not drawn) | Emax | % | 104
Cc1noc(C2(C)C(=O)Nc3nc(-c4nc(Cc5cccc(F)c5F)nc5c4cnn5C)nc(N)c32)n1 (stereo not drawn) | Emax | % | 88
Cn1ccc2c(-c3nc(N)c4c(n3)NC(=O)C4(c3nnc(C4CC4)o3)C3CC3)nc(CCC(F)(F)C(F)(F)F)nc21 (stereo not drawn) | Emax | % | 109

Switching to the query record.
Emax reported for this molecule [2H]C([2H])([2H])n1ncc2c(-c3nc(N)c4c(n3)NC(=O)C4(C)c3ccccn3)nc(CCC(F)(F)C(F)(F)F)nc21 (stereo not drawn) : 147

====

Give measured EC50 for each item. Keep answers brief.
system.tested: sGC α1/β1 heterodimer stably expressed in CHO-K1 cells (CHO-K1/sGC) (Homo sapiens, UniProt Q02108+Q02153)
Construct: expressed in transfected cells
test.protocol: Cell-based sGC Functional Assay (CASA Assay)
recorded.conditions: inflection point of cGMP generation in CHO-K1/sGC cells, 4P fit; 1 hr at 37° C.; read-out: IP
Method: sGC is a heme-containing enzyme that converts GTP to secondary messenger cGMP. Increases in cGMP levels affect several physiological processes including vasorelaxation through multiple downstream pathways. […] (Example 1 in WO 2010/065275, published Jun. 10, 2010). The test compounds' activity were then expressed as a percentage of Compound A, the standard in every experiment. This percent activation was calculated either in the presence or absence of DETA-NO which was then plotted. […]
One number for each entry, in nM.

Completed entries (count: 2):
compound | EC50 (nM)
Cn1ncc2c(-c3nc(N)c4c(n3)NC(=O)C4(c3cnoc3)C3CC3)nc(CCC(F)(F)C(F)(F)F)nc21 (stereo not shown) [Example 16] | 160
CC(C)Cn1cc(C2(C)C(=O)Nc3nc(-c4nc(CCC(F)(F)C(F)(F)F)nc5c4cnn5C)nc(N)c32)nn1 (stereo not shown) [Example 70] | 294

// batch mode: one EC50 value per listed entry
1. [2H]C([2H])([2H])n1ncc2c(-c3nc(N)c4c(n3)NC(=O)C4(c3nnc(C4CC4)o3)C3CC3)nc(CCC(F)(F)C(F)(F)F)nc21 (stereo not shown) [Example 38]
2. [2H]C([2H])([2H])n1ncc2c(-c3nc(N)c4c(n3)NC(=O)C4(c3cn(C)nn3)C3CC3)nc(CCC(F)(F)C(F)(F)F)nc21 (single isomer, unassigned) [Example 54]
3. CCCCc1nc(-c2nc(N)c3c(n2)NC(=O)C3(C)c2ccc(F)cn2)c2cnn(C)c2n1 (stereo not shown) [Example 34]
4. Cn1ncc(C2(C)C(=O)Nc3nc(-c4nc(CCC(F)(F)C(F)(F)F)nc5c4cnn5C)nc(N)c32)n1 (stereo not shown) [Example 80]

Outgoing:
[265, 229, 44, 408]

// batch mode: one EC50 value per listed entry
1. Cn1ccc2c(-c3nc(N)c4c(n3)NC(=O)C4(C)c3nnc(C4CC4)o3)nc(CCC(F)(F)C(F)(F)F)nc21 (stereo not shown) [Example 86]
2. CC(C)n1cc(C2(C)C(=O)Nc3nc(-c4nc(CCC(F)(F)C(F)(F)F)nc5c4cnn5C)nc(N)c32)nn1 (single isomer, unassigned) [Example 56]
3. Cn1ncc2c(-c3nc(N)c4c(n3)NC(=O)C4(C)c3ccc(F)cn3)nc(CCC3CC(F)(F)C3)nc21 (stereo not shown) [Example 29]
4. Cn1ncc2c(-c3nc(N)c4c(n3)NC(=O)C4(C)c3ccc(F)cn3)nc(CCC3CCC3)nc21 (stereo not shown) [Example 30]

Outgoing:
410
1020
230
35

// batch mode: one EC50 value per listed entry
1. CC(C)n1cc(C2(C3CC3)C(=O)Nc3nc(-c4nc(CCC(F)(F)C(F)(F)F)nc5c4cnn5C)nc(N)c32)cn1 (stereo not shown) [Example 26]
2. Cn1ncc2c(-c3nc(N)c4c(n3)NC(=O)C4(C)c3cn(C4CCC4)nn3)nc(CCC(F)(F)C(F)(F)F)nc21 (single isomer, unassigned) [Example 74]

Outgoing:
[230, 78]

// batch mode: one EC50 value per listed entry
1. [2H]C([2H])([2H])n1ncc2c(-c3nc(N)c4c(n3)NC(=O)C4(c3nnc(C4CC4)o3)C3CC3)nc(CCCC(F)(F)F)nc21 (stereo not shown) [Example 43]
2. Cc1noc(C2(C)C(=O)Nc3nc(-c4nc(Cc5cccc(F)c5F)nc5c4cnn5C)nc(N)c32)n1 (stereo not shown) [Example 5]
3. Cn1ncc2c(-c3nc(N)c4c(n3)NC(=O)C4(C)c3ccc(F)cn3)nc(CCCC(F)(F)F)nc21 (stereo not shown) [Example 4]
4. [2H]C([2H])([2H])n1ncc2c(-c3nc(N)c4c(n3)NC(=O)C4(c3nnc(C4CC4)o3)C3CC3)nc(CCC(F)(F)F)nc21 (stereo not shown) [Example 47]
5. Cn1ncc2c(-c3nc(N)c4c(n3)NC(=O)C4(C)n3cnnn3)nc(CCC(F)(F)C(F)(F)F)nc21 (single isomer, unassigned) [Example 84]
6. Cn1ncc2c(-c3nc(N)c4c(n3)NC(=O)C4(C)c3ccc(F)cn3)nc(CC3CC(F)(F)C3)nc21 (stereo not shown) [Example 3]
7. CCn1ncc(C2(C)C(=O)Nc3nc(-c4nc(CCC(F)(F)C(F)(F)F)nc5c4cnn5C)nc(N)c32)n1 (stereo not shown) [Example 79]

Outgoing:
1. 825
2. 10
3. 54
4. 2080
5. 365
6. 104
7. 491

// batch mode: one EC50 value per listed entry
1. Cn1ncc2c(-c3nc(N)c4c(n3)NC(=O)C4(c3ncco3)C3CC3)nc(CCC(F)(F)C(F)(F)F)nc21 (stereo not shown) [Example 28]
2. [2H]C([2H])([2H])n1ncc2c(-c3nc(N)c4c(n3)NC(=O)C4(C)c3noc(C)n3)nc(CCC(F)(F)C(F)(F)F)nc21 (stereo not shown) [Example 19]

Outgoing:
1: 891; 2: 225

// batch mode: one EC50 value per listed entry
1. [2H]C([2H])([2H])n1ncc2c(-c3nc(N)c4c(n3)NC(=O)C4(c3nc(CC(C)(C)C(=O)OCC)cs3)C3CC3)nc(CCC(F)(F)C(F)(F)F)nc21 (stereo not shown) [Example 82]
2. C=CCn1cc(C2(C)C(=O)Nc3nc(-c4nc(CCC(F)(F)C(F)(F)F)nc5c4cnn5C)nc(N)c32)nn1 (single isomer, unassigned) [Example 75]
3. [2H]C([2H])([2H])n1cc(C2(C)C(=O)Nc3nc(-c4nc(CCC(F)(F)C(F)(F)F)nc5c4cnn5C)nc(N)c32)nn1 (single isomer, unassigned) [Example 77]

Outgoing:
[509, 175, 168]

EC50 reported for this compound [2H]C([2H])([2H])n1ncc2c(-c3nc(N)c4c(n3)NC(=O)C4(C)c3cncc(OC)c3)nc(CCC(F)(F)C(F)(F)F)nc21 (stereo not shown) [Example 14] : 709
